Test system: MARK4
stated_conditions: concentration: 1 μM,replicates: in singlicate; n = 1;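 further: KINOMEscan kinase panel screen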
Below is a list of entries, each paired with its recorded %Inh value.
Enter the number, and then the unit.

# annotated cases, reported %Inh shown
Cc1ccc(-n2nc(C(C)(C)C)cc2NC(=O)Nc2ccc(OCCN3CCOCC3)c3ccccc23)cc1 | 7%
Cc1cc(C(=O)Nc2ccc(Oc3ccc4nc(NC(=O)C5CC5)cn4n3)cc2)nn1-c1ccccc1 | 44%
Cc1cc2cn[nH]c2cc1-c1cccc2c(N)c(C(N)=O)nnc12 | 0%
Cl.Oc1cc(-c2nc(-c3ccccc3)[nH]c2-c2ccncc2)ccc1Cl | 9%
NC(=O)c1cc(-c2ccccc2)cc2c(C3CCNCC3)c[nH]c12 | 5%
CCN(CC)CCCCNc1ncc2cc(-c3c(Cl)cccc3Cl)c(NC(=O)NC(C)(C)C)nc2n1 | 2%
C[C@@H](Oc1cc(-c2cnn(C3CCNCC3)c2)cnc1N)c1c(Cl)ccc(F)c1Cl | 26%

Switching to the query record.
Determine from records and report %Inh for COc1ccc(C[C@@H](CN)NC(=O)c2cc(Br)c(-c3ccnc4[nH]ccc34)s2)cc1.Cl.Cl
1%

====

Tested on: EPHA8
stated_conditions: concentration: 1 μM,replicates: in singlicate; n = 1
value_kind: %Inh
Enter the number, and then the unit.

# annotated cases, reported %Inh shown
Cc1n[nH]c2ccc(-c3cc(OC[C@@H](N)Cc4ccccc4)cnc3-c3ccoc3)cc12.O=C(O)C(F)(F)F.O=C(O)C(F)(F)F | 21%
O=C(NCCNc1ccnc(NCc2ccc(F)cc2)n1)c1cc2ccccc2s1 | 34%
Cl.Cl.NC[C@H](Cc1ccc(C(F)(F)F)cc1)NC(=O)c1cc(Br)c(-c2ccnc3[nH]ccc23)s1 | 47%

Determine from records and report %Inh for Nc1nc(Nc2ccccc2)cc(-c2ccc3c(N)n[nH]c3c2)n1
0%

Determine from records and report %Inh for CC(C)Nc1cc(-c2ccc3c(N)n[nH]c3c2)nc(N)n1
18%

Determine from records and report %Inh for C[C@@H]1CCN(C(=O)CC#N)C[C@@H]1N(C)c1ncnc2[nH]ccc12
10%

Determine from records and report %Inh for CN(C)CC(O)COc1ccc(Nc2nccc(-c3cnn4nc(N5CCOCC5)ccc34)n2)cc1 (stereo not drawn)
0%

Determine from records and report %Inh for Cc1ccc2c(-c3ccncc3)c(-c3ccc(F)cc3)nn2c1.Cl
15%

Determine from records and report %Inh for Cc1cc2cn[nH]c2cc1-c1cccc2c(N)c(C(N)=O)nnc12
11%

====

Tested on: PAK3
stated_conditions: concentration: 1 μM,replicates: in singlicate; n = 1
value_kind: %Inh (%)
Report the value in % with no unit label.

# annotated cases, reported %Inh shown
CCN(CC)CCOc1ccc(Nc2ncc3cc(-c4c(Cl)cccc4Cl)c(=O)n(C)c3n2)cc1 | 47
Cc1cc2cn[nH]c2cc1-c1cccc2c(N)c(C(N)=O)nnc12 | 85
COc1ccc(C[C@@H](CN)NC(=O)c2cc(Br)c(-c3ccnc4[nH]ccc34)s2)cc1.Cl.Cl | 93.9

Switching to the query record.
Determine from records and report %Inh for Cc1ccc(-n2nc(C(C)(C)C)cc2NC(=O)Nc2ccc(OCCN3CCOCC3)c3ccccc23)cc1
35

====

Test system: AMPK-alpha2
Construct: gene PRKAA2
stated_conditions: concentration: 1 μM,replicates: in singlicate; n = 1
Below is a list of entries, each paired with its recorded %Inh value.
Report the value in % with no unit label.

# annotated cases, reported %Inh shown
CC(C)N1C(=O)Cc2cc(Nc3ncc(C(F)(F)F)c(NCc4cccc(S(C)(=O)=O)c4)n3)ccc21 | 0
Nc1nc(Nc2ccccc2)cc(-c2ccc3c(N)n[nH]c3c2)n1 | 0

Determine from records and report %Inh for Cl.Oc1cc(-c2nc(-c3ccccc3)[nH]c2-c2ccncc2)ccc1Cl
0

Determine from records and report %Inh for COc1ccc(C[C@@H](CN)NC(=O)c2cc(Br)c(-c3ccnc4[nH]ccc34)s2)cc1.Cl.Cl
89

Determine from records and report %Inh for Cl.Cl.NC[C@H](Cc1ccc(C(F)(F)F)cc1)NC(=O)c1cc(Br)c(-c2ccnc3[nH]ccc23)s1
70

Determine from records and report %Inh for CN(C)CCOc1ccc(-c2cc(-c3c[nH]nc3-c3ccccn3)ccn2)cc1
0

Determine from records and report %Inh for Cc1cc(C(=O)Nc2ccc(Oc3ccc4nc(NC(=O)C5CC5)cn4n3)cc2)nn1-c1ccccc1
18

Determine from records and report %Inh for CC(C)Nc1cc(-c2ccc3c(N)n[nH]c3c2)nc(N)n1
0

Where do the numbers come from? From paper PMC5540273.
